B1: HDV Ribozyme (parent)
chain: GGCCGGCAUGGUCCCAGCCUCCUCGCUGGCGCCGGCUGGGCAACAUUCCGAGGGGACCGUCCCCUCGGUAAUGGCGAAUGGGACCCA

- Variants of: B1
- experimental.protocol: self-cleavage, relative activity (ratio to wild type); higher = more cleavage; co-transcriptional
Label rule, in plain words: self-cleavage of 0.2 and up is y, under 0.2 is n.

Lookup: Evaluate G1U U20C : self-cleavage at minimum 0.2?
Found: y

Lookup: Same thing, different variant: C21U G76U
Found: y

Lookup: Request: C15G G73A
Found: n

Lookup: And then G53U G68A , what is it?
Found: y

Lookup: Subsequent entry: C15A C58G
Found: y

Lookup: Then what about the variant C62G G67U ?
Found: y

Lookup: Ok, now C19G G52U
Found: n

Lookup: Note, next up: G35A A71G
Found: y

Lookup: Lookup U60C C85U
Found: y

Lookup: Now consider C30G G54U and answer again.
Found: n

Lookup: Continue with A51G G68A
Found: y

Lookup: // repeat for U9G G54C and report
Found: y

Lookup: Request: C13G G82A
Found: n

Lookup: What do you get for A43G G73U ?
Found: n

Lookup: Likewise for G28U A71G ?
Found: n

Lookup: Next variant up: C33G C64U
Found: y

Lookup: Next entry: U9C U46C
Found: y

Lookup: Please answer likewise for G11C A83C
Found: n

Lookup: Lookup C14G G25A
Found: n

Lookup: Record: G40U C49U
Found: y

Lookup: Let us now turn to A43G A70G
Found: y

Lookup: Could you do the same for U23G G54U , please?
Found: y

Lookup: Check C36G G39C too.
Found: y

Lookup: How about U9G C66A ?
Found: y

Lookup: Next variant up: C22G A51U
Found: n

Lookup: Try this variant too: C4U U23C
Found: y

Lookup: Another variant: C13U A16U
Found: y

Lookup: What do you have for U23G U46G ?
Found: y

Lookup: What would you report for G76C G82C ?
Found: y

Lookup: How about G10U U37C ?
Found: y

Lookup: Subsequent entry: C26A A70C
Found: y

Lookup: Same for G31A G68A
Found: y

Lookup: Moving on to the next variant: C22A G53C
Found: n

Lookup: Moving on to the next variant: A56C C62A
Found: y

Lookup: Now the variant C57G C63U
Found: y

Lookup: Also U12A C32U , if possible.
Found: n

Lookup: Same for G29U C30G
Found: n

Lookup: How about G54C U72G ?
Found: y

Lookup: Cool, now C14G A56U
Found: y

Lookup: Please do the same for G6A A8U as well.
Found: y

Lookup: Would you mind doing G59A U72C as well?
Found: y

Lookup: Can you handle C3U A42C next?
Found: n

Lookup: And A8U G74A ?
Found: n

Lookup: Field entry: G31C G54A
Found: n

Lookup: And then C26A C49G , what is it?
Found: y

Lookup: // next record G59U G73A
Found: y

Lookup: Query A43U C48A next
Found: y

Lookup: For G17U C21A then?
Found: n

Lookup: Check G1A G55U too.
Found: y

Lookup: // query: G25C G81U
Found: n

Lookup: Follow-up item: A45U A70C
Found: y

Lookup: Okay, and U46G C49G ?
Found: y

Lookup: Okay, and U27C U72G ?
Found: y

Lookup: // query: C7U C66U
Found: y
